The measurements presented in this section are drawn from patent US5066818A.

assay.notes: Photochromic response on optical bench of naphthopyrans imbibed into polymer test samples
Type: physicochemical
conditions: homopolymer of diethylene glycol bis(allyl carbonate); values in sec.
recorded.endpoint: Bleach Rate T1/2 (min)
Answers are plain numbers, in min.

Q: Would you kindly share the measured Bleach Rate T1/2 for COc1ccc(C2(c3ccccc3)C=Cc3c(ccc4ccccc34)O2)cc1 (stereo not drawn) ?
Ans: 0.583

For every record below, what is its Bleach Rate T1/2?
1. COc1ccc(C2(c3ccc(C)cc3)C=Cc3c(ccc4ccccc34)O2)cc1 (stereo not drawn)
2. COc1ccc(C2(c3ccc(OC)cc3C)C=Cc3c(ccc4ccccc34)O2)cc1 (stereo not drawn)
3. COc1ccc(C2(c3ccccc3C)C=Cc3c(ccc4ccccc34)O2)cc1 (stereo not drawn)
4. COc1ccc(C2(c3ccccc3)C=Cc3c(ccc4ccccc34)O2)c(OC)c1 (stereo not drawn)

Ans:
1. 0.667
2. 8.5
3. 10
4. 8.5

Q: Would you kindly share the measured Bleach Rate T1/2 for C1=CC(c2ccccc2)(c2ccccc2)Oc2ccc3ccccc3c21 [compound 1, 3,3-diphenyl-3H-naphtho[2,1-b]pyran] ?
Ans: 0.75
